Let's look at some molecules and their measured log10(%HIA +10).
test: Drug absorption in human assessed as human intestinal absorption rate; format: ADME, tissue-based, Intestine

Query string: Entry under review: NC(=O)N1C(=O)/C(=C(\O)c2cccs2)c2cc(Cl)ccc21 [TENIDAP] . Reported log10(%HIA +10)?
Result string: 1.996

Query string: Let us now turn to CCN(CC)C(=S)SSC(=S)N(CC)CC
Result string: 2.029

Query string: Next: O=C(O)c1cc(=O)c2c(OCC(O)COc3cccc4oc(C(=O)O)cc(=O)c34)cccc2o1 [CROMOLYN]
Result string: 1.021

Query string: And the next one, O=C1CN2Cc3c(ccc(Cl)c3Cl)N=C2N1 [ANAGRELIDE] ?
Result string: 1.903

Query string: Now give it for N[C@@H]1CON=C1O [CYCLOSERINE] too.
Result string: 1.919

Query string: Param item: Cc1cc(=O)n(-c2ccccc2)n1C [ANTIPYRINE]
Result string: 2.041

***
Query string: Looking for the measured log10(%HIA +10) of Cc1c(OCC(F)(F)F)ccnc1C[S+]([O-])c1nc2ccccc2[nH]1 (stereo not given) [LANSOPRAZOLE] , can you help?
Result string: 1.978

Query string: And for CCCc1cc(=O)[nH]c(=S)[nH]1 [PROPYLTHIOURACIL] ?
Result string: 1.929

Query string: Please give the result for COc1ccc2c(C(=S)N(C)CC(=O)O)cccc2c1C(F)(F)F [TOLRESTAT] too.
Result string: 1.881

Query string: Ok, now O=C(O)CCC(=O)Nc1ccc(S(=O)(=O)Nc2nccs2)cc1 [SUCCINYLSULFATHIAZOLE]
Result string: 1.176

---

Catalogue of log10(%HIA +10) values
assay: Drug absorption in human assessed as human intestinal absorption rate; format: ADME, tissue-based, Intestine

Observe how each entry below is paired with its result.
Query string: Give its log10(%HIA +10) value. Item: Oc1ccc(C(O)C2CCCCN2)cc1O (stereo unspecified)
Result string: 1.763

Query string: One more compound: COc1nc(C)nc(Cl)c1N=C1NCCN1
Result string: 1.991

Query string: Could you do the same for NCCCC[C@H](N[C@@H](CCc1ccccc1)C(=O)O)C(=O)N1CCC[C@H]1C(=O)O [LISINOPRIL ANHYDROUS] , please?
Result string: 1.544

Query string: Moving on to O=C1NS(=O)(=O)c2ccccc21
Result string: 1.991

More entries:
Query string: Looking for the measured log10(%HIA +10) of CC(C)NCC(O)COc1ccc(CCNC(=O)NC(C)C)cc1 (stereo unspecified) , can you help?
Result string: 1.591

---

Documented log10(%HIA +10) across a set of compounds
experiment: Drug absorption in human assessed as human intestinal absorption rate; type: ADME, tissue-based, Intestine
Lab note: record the figure alone, no unit after it.

Query string: # lookup: log10(%HIA +10) of N=C(N)NCC1COc2ccccc2O1 (stereo unspecified) [GUANOXAN]
Result string: 1.778

More entries:
Query string: Query: log10(%HIA +10); subject: CCC[C@@H]1C[C@@H](C(=O)N[C@@H]([C@H]2O[C@H](SC)[C@H](O)[C@@H](O)[C@H]2O)[C@@H](C)O)N(C)C1 [LINCOMYCIN]
Result string: 1.574

Query string: Another compound: CO/N=C(\C(=O)N[C@@H]1C(=O)N2C(C(=O)O)=C(COC(N)=O)CS[C@H]12)c1ccco1 [CEFUROXIME]
Result string: 1.176

Query string: Another: CNC(=C[N+](=O)[O-])NCCSCc1ccc(CN(C)C)o1 [RANITIDINE]
Result string: 1.798

Query string: Item: OCCN(CCO)c1nc(N2CCCCC2)c2nc(N(CCO)CCO)nc(N3CCCCC3)c2n1 [DIPYRIDAMOLE]
Result string: 1.833

Query string: Let us now turn to CCOC(=O)Nc1ccc2c(c1)N(C(=O)CCN1CCOCC1)c1ccccc1S2 [MORICIZINE]
Result string: 1.991

---

experiment: Drug absorption in human assessed as human intestinal absorption rate; assay type: ADME, tissue-based, Intestine
readout_kind: log10(%HIA +10)

Query string: // lookup log10(%HIA +10) for CC[C@H](C)C(=O)O[C@H]1C[C@H](O)C=C2C=C[C@H](C)[C@H](CC[C@@H](O)C[C@@H](O)CC(=O)O)[C@H]21
Result string: 1.643

Query string: What do you get for CCc1cccc2c3c([nH]c12)C(CC)(CC(=O)O)OCC3 (stereo not drawn) ?
Result string: 1.903

Query string: Try the compound CN(C)CCCOc1nn(Cc2ccccc2)c2ccccc12
Result string: 1.987

---

Each entry below carries its recorded log10(%HIA +10).
assay: Drug absorption in human assessed as human intestinal absorption rate; format: ADME, tissue-based, Intestine
Quick one: just the number, no unit, thanks!

These recorded examples may help you get a feel for the data.
Query string: So what's the measured log10(%HIA +10) for this one? O=C(O)c1ccccc1C(=O)Nc1ccc(S(=O)(=O)Nc2nccs2)cc1
Result string: 1.176

Query string: And what about the compound NC[C@H]1O[C@H](O[C@H]2[C@H](O)[C@@H](O[C@H]3O[C@H](CO)[C@@H](O)[C@H](N)[C@H]3O)[C@H](N)C[C@@H]2N)[C@H](N)C[C@@H]1O ?
Result string: 1

Query string: Same thing, different compound: CC(=O)Nc1ccc(O)cc1
Result string: 1.978

Query string: How about this compound: O=C1c2c(O)ccc(O)c2C(=O)c2c(NCCNCCO)ccc(NCCNCCO)c21
Result string: 1.176

Query string: Let us now turn to CN(C)[C@@H]1C(O)=C(C(N)=O)C(=O)[C@@]2(O)C(O)=C3C(=O)c4c(O)cccc4[C@@](C)(O)[C@H]3[C@H](O)[C@@H]12
Result string: 1.833

Query string: Thanks! And NS(=O)(=O)c1cc2c(cc1Cl)NCNS2(=O)=O [HYDROCHLOROTHIAZIDE] ?
Result string: 1.875

Query string: // next record Cc1cccc(C)c1NC(=O)NCCCNC(C)C
Result string: 1.909

Query string: Consider next the compound OC[C@H]1O[C@@H](O[C@@H]2[C@@H](CO)O[C@](O)(CO)[C@H]2O)[C@H](O)[C@@H](O)[C@H]1O in the same way.
Result string: 1.025

Query string: What would you report for CC1(C)S[C@@H]2[C@H](NC(=O)[C@H](N)c3ccc(O)cc3)C(=O)N2[C@H]1C(=O)O ?
Result string: 2.016

Query string: Next compound: CC(C)NCC(O)c1cc(O)cc(O)c1 (stereo unspecified)
Result string: 1.732

***
Query string: # query: log10(%HIA +10) of entry CN(C)C(=N)N=C(N)N
Result string: 1.799

Query string: Item: CC(=O)CC(c1ccccc1)c1c(O)c2ccccc2oc1=O (stereo unspecified)
Result string: 2.033

Query string: Same again, this time with CNC(=O)c1c(I)c(NC(C)=O)c(I)c(C(=O)O)c1I
Result string: 1.076

Query string: # iterate: CC1(C)S[C@@H]2[C@H](NC(=O)[C@H](NC(=O)N3CCNC3=O)c3ccccc3)C(=O)N2[C@H]1C(=O)O
Result string: 1

Query string: Likewise for C=CCNc1nc(NCC=C)nc(N2CCN(C(c3ccc(F)cc3)c3ccc(F)cc3)CC2)n1 ?
Result string: 2

Query string: Request: OC[C@@H](O)[C@@H](O)[C@H](O)[C@H](O)CO
Result string: 1.415

---

experiment: Drug absorption in human assessed as human intestinal absorption rate; format: ADME, tissue-based, Intestine
log10(%HIA +10) listing for selected compounds.
Lab note: record just the number, no unit beside it.

Some entries whose results are on file:
Query string: Give its log10(%HIA +10) value. Item: O=c1[nH]c2ccccc2n1C1CCN(CCCC(c2ccc(F)cc2)c2ccc(F)cc2)CC1 [PIMOZIDE]
Result string: 1.903

Query string: Record: CCN1CCCC1CNC(=O)c1cc(S(N)(=O)=O)ccc1OC (stereo not given) [SULPIRIDE]
Result string: 1.732

Query string: Again, but for CCN(C)C(=O)Oc1cccc([C@H](C)N(C)C)c1 [RIVASTIGMINE]
Result string: 2.041

Query string: Follow-up item: Cc1cc(C(=O)NNCc2ccccc2)no1 [ISOCARBOXAZID]
Result string: 1.903

Please examine the following record next.
Query string: Name the reported log10(%HIA +10) value associated with the compound Cc1onc(-c2c(F)cccc2Cl)c1C(=O)N[C@@H]1C(=O)N2[C@@H]1SC(C)(C)[C@@H]2C(=O)O [FLOXACILLIN]
Result string: 1.699

---

test: Drug absorption in human assessed as human intestinal absorption rate; format: ADME, tissue-based, Intestine
Measured log10(%HIA +10) accompanies every entry in the list below.
Lab note: write the figure by itself, no unit.

Look over these answered cases.
Query string: Please give the measured log10(%HIA +10) for this compound: CN1[C@@H]2CC[C@H]1C[C@@H](OC(=O)C(CO)c1ccccc1)C2 (stereo not given in full)
Result string: 2.033

Query string: CC1(C)S[C@@H]2[C@H](NC(=O)[C@H](C(=O)O)c3ccsc3)C(=O)N2[C@H]1C(=O)O , same question.
Result string: 1.176

Query string: Another compound: C[C@]12CCC(=O)C=C1CC[C@@H]1[C@@H]2[C@@H](O)C[C@@]2(C)[C@H]1CC[C@]2(O)C(=O)CO [HYDROCORTISONE]
Result string: 2.004

Query string: // same read-out, input: NCCC(O)(P(=O)(O)O)P(=O)(O)O
Result string: 1.176

Pending compound:
Query string: Could you share which log10(%HIA +10) value was measured for C[C@H]1[C@H](NC(=O)/C(=N\OC(C)(C)C(=O)O)c2csc(N)n2)C(=O)N1S(=O)(=O)O ?
Result string: 1.041
